B1: POU domain, class 3, transcription factor 1, residues 247 to 324; numbered along this chain, Q03052 (parent)
chain: EDAPSSDDLEQFAKQFKQRRIKLGFTQADVGLALGTLYGNVFSQTTICRFEALQLSFKNMCKLKPLLNKWLEETDSSS

Variants of: B1
Experiment: abundance fitness (aPCA) (normalised: wild type 0, dead -1); higher = more abundant; growth selection in yeast, the domain comes from the species named
Settings: Homo sapiens
endpoint_label: abundance fitness

residue_codes: EDAPSSDDLEQFAKQFKQRRIKLGFTQADVGLALGTLYGNVFSQTTICRFEALILSFKNMCKLKPLLNKWLEETDSSS
result: -0.316
//
residue_codes: EDAPSSDDLEQFAKQFKQRRIKLGFTQADVGLALGTLYGNVFSQTTICRFEALQLSFKNMCKLKPLLNKWIEETDSSS
result: -0.019
//
residue_codes: EDAPSSDDLEQFAKQFKQRRIKLGFTQADVGLWLGTLYGNVFSQTTICRFEALQLSFKNMCKLKPLLNKWLEETDSSS
result: -0.195
//
residue_codes: EDAPSSDDLEQFAKQFKQRSIKLGFTQADVGLALGTLYGNVFSQTTICRFEALQLSFKNMCKLKPLLNKWLEETDSSS
result: -0.813
//
residue_codes: EDAPSSDDLEQFAKQFKQRRIKLGFTQADVGLALGTLLGNVFSQTTICRFEALQLSFKNMCKLKPLLNKWLEETDSSS
result: -0.418
//
residue_codes: EDAPSSDDLEQFAKQFKQRRIKLGFTQADVGLALGTLYGNVFSQTTICRFEALQLSFKNNCKLKPLLNKWLEETDSSS
result: 0.011
//
residue_codes: EDAPSSDDLEQFAKQFKQRRIKLGFTQADVHLALGTLYGNVFSQTTICRFEALQLSFKNMCKLKPLLNKWLEETDSSS
result: -0.228
//
residue_codes: EDAPSSDDLEQFAKQFKQRRIKLGFTQADVGLALGTLYGNVFSRTTICRFEALQLSFKNMCKLKPLLNKWLEETDSSS
result: -0.067
//
residue_codes: EDAPSSDDLEQFAKQFKQRRIKLGFTQADVGLALGTLYGNVFSQTTRCRFEALQLSFKNMCKLKPLLNKWLEETDSSS
result: -0.555
//
residue_codes: EDAPSSDDLEQFAKQFKQRRIKLGFTQADVGLALGTLYGNVFSQTTICRFEALQLSFKNMCKLKPLLNKWLEEIDSSS
result: -0.479
//
residue_codes: EDAPSSDDLEQFAKQFKQRRIKLGFTQADVGLALGTLYGNVFSQTTICRFEALQLSFINMCKLKPLLNKWLEETDSSS
result: -0.045
//
residue_codes: EDAPSSDDLEQFAKQFKQRRIKLGFTQADVGLALGTLYGNVFSQTTICRFEALQLSFKNMCKLKPLLNKWLVETDSSS
result: -0.1
//
residue_codes: EDAPSSDDLEQFAKQFKQRRIKLGFTQADVGLALGTLYCNVFSQTTICRFEALQLSFKNMCKLKPLLNKWLEETDSSS
result: -0.523
//
residue_codes: EDAPSSDDLEQFAKQFKQRRDKLGFTQADVGLALGTLYGNVFSQTTICRFEALQLSFKNMCKLKPLLNKWLEETDSSS
result: -0.527
//
residue_codes: EDAPSSDDLEQFAKQFKQRRIKLGFTQADVGLALGTLYGNVNSQTTICRFEALQLSFKNMCKLKPLLNKWLEETDSSS
result: -0.597
//
residue_codes: EDAPSSDDLEQFAKQFKQRRIKLGFTQADVGLALGTLYGNVFSQTTICRFEALQLSFKNMCKLKPLLNKWLEFTDSSS
result: -0.105
//
residue_codes: EDAPSSDDLEQFAKQFKQRRIKLGFTQADVGLALGTLYGNVFSQTTICRFEALQLHFKNMCKLKPLLNKWLEETDSSS
result: -0.724
//
residue_codes: EDAPSSDDLEQFAKQFKQRRIKLGITQADVGLALGTLYGNVFSQTTICRFEALQLSFKNMCKLKPLLNKWLEETDSSS
result: -0.404
//
residue_codes: EDAPSSDDLEQFAKQFKQRRIKLGFTQADVGLALGTLYGNVFSQTTICRFEALQLSFKNICKLKPLLNKWLEETDSSS
result: -0.811
//
residue_codes: EDAPSSDDLEQFAKQFKQRRIKLGFTQADVGLALGTLYGNVFSQTTICRFEALQLSFKNMCKLKPLLNKWREETDSSS
result: -0.569
//
residue_codes: EDAPSSDDLEQFAKQFKQRRIKLGFTQADVGLALGTLYGNRFSQTTICRFEALQLSFKNMCKLKPLLNKWLEETDSSS
result: -0.035
//
residue_codes: EDAPSSDDLEQFAKQFKQRRIKLGFTQADVGLALGTLYGNVFSQTTICRFEALQLSFTNMCKLKPLLNKWLEETDSSS
result: 0.021
//
residue_codes: EDAPSSDDLEQFAKQFKQRRIKLGFTQADVGLALGTLYGNVFSQTTICRFEALQLSFKNMCKLKPLLNKWLEETDHSS
result: -0.196
//
residue_codes: EDAPSSDDLEQFAKQFKQRRIKLGFTQADVGLALGTLYVNVFSQTTICRFEALQLSFKNMCKLKPLLNKWLEETDSSS
result: -0.846
//
residue_codes: EDAPSSDDLEQFAKQFKQRRIKLGFTQADVGLALGTLYGNVFSQTTICRFEALQLSFKNMCWLKPLLNKWLEETDSSS
result: -0.449
//
residue_codes: EDAPSSDDLEQFAKQFKQRRIKLGFTQADVGLALGTLYGNVFSQTTICRFEALQFSFKNMCKLKPLLNKWLEETDSSS
result: -0.311
//
residue_codes: EDAPSSDDLEQFAKQFKQRRIKLGFTQADVGLALGTLYGNVFSQTTICRFEALQLSFKNMCKLKPLLNDWLEETDSSS
result: -0.19
//
residue_codes: EDAPSSDDLEQFAKQFKQRRIKLGFTQADVGLALGTLYGNVFSQTTICWFEALQLSFKNMCKLKPLLNKWLEETDSSS
result: 0.051
//
residue_codes: EDAPSSDDLEQFAKQFKQRWIKLGFTQADVGLALGTLYGNVFSQTTICRFEALQLSFKNMCKLKPLLNKWLEETDSSS
result: -0.973
//
residue_codes: EDAPSSDDLEQFAKQFKQRRIKLIFTQADVGLALGTLYGNVFSQTTICRFEALQLSFKNMCKLKPLLNKWLEETDSSS
result: -1.02
//
residue_codes: EDAPSSDDLEQFAKQFKQRRIKLGFTQAPVGLALGTLYGNVFSQTTICRFEALQLSFKNMCKLKPLLNKWLEETDSSS
result: -0.614
//
residue_codes: EDAPSSDDLEQFAKQFKQRRIKLGFTQADVGLALGTLCGNVFSQTTICRFEALQLSFKNMCKLKPLLNKWLEETDSSS
result: -0.029
//
residue_codes: EDAPSSDDLEQFAKQFKQRRIKLGFTQADVGLALGTLYGNVFSQTTICRFEALQLSFRNMCKLKPLLNKWLEETDSSS
result: -0.142
//
residue_codes: EDAPSSDDLEQFAKQFKQRRIKLGFTQADVGLALGTLYGNVFSQTTICRFEALQLSFKNMYKLKPLLNKWLEETDSSS
result: -0.164
//
residue_codes: EDAPSSDDLEQFAKQFKQRRIKLGFTQADVGLALGTLYGNVFSQTTICRFEALQLSFKNMCKLKPLLNKWLEETDTSS
result: 0.103
//
residue_codes: EDAPSSDDLEQFAKQFKQRRIKLGFTQADLGLALGTLYGNVFSQTTICRFEALQLSFKNMCKLKPLLNKWLEETDSSS
result: -0.175
//
residue_codes: EDAPSSDDLEQFAKQFKQRRIKLGFTQADVGLALGTLYGNVFSQTTICRFEALQLSFKNMCKLKPLLNKWLIETDSSS
result: -0.245
//
residue_codes: EDAPSSDDLEQFAKQFKQRRIKLGFTQADVGLALGTLYGNVFSQTTICRFEALQLSYKNMCKLKPLLNKWLEETDSSS
result: 0.37
//
residue_codes: EDAPSSDDLEQFAKQFKQRRIKLGFTQADVGLALGTLYGNVFSQTTICRFEALQLSFKNMCKLKPLLNHWLEETDSSS
result: -0.254
//
residue_codes: EDAPSSDDLEQFAKQFKQRRIKLGFGQADVGLALGTLYGNVFSQTTICRFEALQLSFKNMCKLKPLLNKWLEETDSSS
result: -0.456
//
residue_codes: EDAPSSDDLEQFAKQFKQRRIKLGFTQADVGLALGTLYGNVFSQTTICRFEALQLSFKNMCKLKPLLNKWLEETDSSA
result: -0.023
//
residue_codes: EDAPSSDDLEQFAKQFKQRRIKLGFTQADVGLALGTLYGNVFSQVTICRFEALQLSFKNMCKLKPLLNKWLEETDSSS
result: -0.148
//
residue_codes: EDAPSSDDLEQFAKQFKQRRIKLGFTQADVGLALGTLYGNVFSQTTICRFEALQDSFKNMCKLKPLLNKWLEETDSSS
result: -0.479
//
residue_codes: EDAPSSDDLEQFAKQFKQRRIKLGFTQADVGLALGTLYGNVFSQTTICRFEALQLSFKNMCKYKPLLNKWLEETDSSS
result: -0.368
//
residue_codes: EDAPSSDDLEQFAKQFKQRRIKLGFTQADVGLALGTLYGNVFSQCTICRFEALQLSFKNMCKLKPLLNKWLEETDSSS
result: -0.346
//
residue_codes: EDAPSSDDLEQFAKQFKQRRIKLGFTAADVGLALGTLYGNVFSQTTICRFEALQLSFKNMCKLKPLLNKWLEETDSSS
result: -0.051

Entry source: the Human Domainome abundance scans (Beltran et al. 2025)
